- Tested on: K-562 leukemia
- PROTOCOL: NCI-60 one-dose screen, 48 h (100 = growth as untreated, 0 = no growth, -100 = all killed)
- RUN_CONDITIONS: 10 µM unless noted
This is part of a sample that, as a whole, favours compounds with a hit. Of some 83,000 tested, about 20% had one in any assay.
Using growth as the sorting value, the categories are group 1: < 20%; group 2: ≥ 20% and < 70%; group 3: ≥ 70%

# count of solved cases: 6
N#Cc1ccc(NC(=O)Nc2ccc(Oc3ccc(NC(=O)Nc4ccc(C#N)cc4)cc3)cc2)cc1 | group 1
CC(=O)Oc1c(C)c(OC(C)=O)c2c(c1C(C)=O)OC1CC(=O)C(C(C)=O)=C(O)C21C (stereo unspecified) | group 3
CN(C)c1ccc2[nH]c3c(C(N)=O)cc(=O)c(=O)c=3oc2c1 | group 1
CC1=CC(=O)C(C(C)=Nc2ccccc2Cl)C(=O)O1 (stereo unspecified) | group 3
Nc1ccc2c(c1)/C(=N/O)c1cc([N+](=O)[O-])ccc1-2 | group 2
CCCOc1ccc2c(c1)CC[C@@H]1[C@@H]2CC[C@@]2(C)[C@H]1CC[C@]2(C)O | group 1

Enquiry: Hi there! Could you help me figure out the category for `O=C(/C(=N/O)S(=O)(=O)c1ccccc1)c1cccs1` please?
Return: group 3

Enquiry: Classify this compound: `COc1ccc(-c2c(-c3cc(OC)c(OC)c(OC)c3)noc2N)cc1`
Return: group 1

Enquiry: Assign a bin to `NC(=O)NN=C(C1CC1)C1CC1`
Return: group 3

Enquiry: Categorize the following entry: `CC(=O)c1cc(C(=O)c2ccc3c(c2)Sc2ccccc2N3)c2c(C)cc(C)cn12`
Return: group 1

Enquiry: GET /class?item= `CCOC(Cc1c(N)[nH]c(=S)[nH]c1=O)OCC`
Return: group 3

Enquiry: Assign a bin to `COc1cc2c(cc1OCCCOc1ccc(-c3cc4ccccc4c4ccccc34)cc1)N=C[C@@H]1CCCN1C2=O`
Return: group 1

Enquiry: Category of `Oc1ccccc1C=Nc1ccccc1N=Cc1ccccc1O.[Cu+2]` :
Return: group 2

Enquiry: Dear colleague, I would appreciate it if you could identify the bin for `COc1ccc(-c2csc(NC(=O)c3cc(O)c(O)c(O)c3)n2)cc1` and reply at your convenience.
Return: group 2

Enquiry: Just checking, what class would you give COc1ccc(C2CC(c3ccc(OC)c(OC)c3)=NN2C(=O)c2cc(OC)c(OC)c(OC)c2)cc1 (stereo unspecified) here?
Return: group 2

Enquiry: Classify this compound: `Cc1ccc(NC(=O)Nc2ccc(-c3cccnc3)cc2N2CCC(CO)CC2)cc1`
Return: group 1

Enquiry: Exam item: assign `COc1ccc2c(c1)/C(=C\c1c[nH]c3ccc(F)cc13)C(=O)N2` to the correct category.
Return: group 2

Enquiry: Which growth category applies to `COc1cc(-c2cc(C(=O)Nc3nc4ccccc4s3)nc3cc(-c4ccccc4)nn23)cc(OC)c1OC` here?
Return: group 2

Enquiry: Hey, which category is O=c1ccn(C2CCCO2)c(=O)[nH]1 (stereo unspecified) in, do you know?
Return: group 3

Enquiry: Lab note: which band did `N#Cc1c(N2CCOCC2)nc2sc3cc(Cl)ccc3n2c1=N` land in?
Return: group 3

Enquiry: Would you mind sorting `O=C(OCCBr)c1ccc(Cl)c([N+](=O)[O-])c1` into the appropriate category?
Return: group 3

Enquiry: Class (by measured growth) for `COc1ccc(-c2nnc(COc3ccc(NC(=O)Nc4cc(C(F)(F)F)cc(C(F)(F)F)c4)cc3F)o2)cc1`
Return: group 1

Enquiry: Band of COC1=CC(c2ccc[nH]2)=N/C1=C\c1[nH]c(C)c(C(=O)CCC(=O)Oc2ccc3c(c2)CCC2C3CC[C@]3(C)C(=O)CC[C@@H]23)c1C (stereo partly specified) ?
Return: group 2

Enquiry: Input `Cc1scc2c1N(C(=O)CN1CCN(C)CC1)c1ccccc1NC2=O` ; output its category
Return: group 3

Enquiry: Bin this entry: `CCC(=O)Nc1ccccc1C#C/C=C\C#Cc1ccccc1C(F)(F)F`
Return: group 2
